target: FL-CHK1 (Homo sapiens, UniProt O14757); construct: C-terminally His-tagged full-length human CHK1 (FL-CHK1); 6xHis (C); made in house; host or cells: baculovirus/insect cells; assay: CHK1 assay; type: biochemical; parameters: unit not given here; details: Table A combinatorial examples; footnote b not given
Sequence (O14757 whole entry): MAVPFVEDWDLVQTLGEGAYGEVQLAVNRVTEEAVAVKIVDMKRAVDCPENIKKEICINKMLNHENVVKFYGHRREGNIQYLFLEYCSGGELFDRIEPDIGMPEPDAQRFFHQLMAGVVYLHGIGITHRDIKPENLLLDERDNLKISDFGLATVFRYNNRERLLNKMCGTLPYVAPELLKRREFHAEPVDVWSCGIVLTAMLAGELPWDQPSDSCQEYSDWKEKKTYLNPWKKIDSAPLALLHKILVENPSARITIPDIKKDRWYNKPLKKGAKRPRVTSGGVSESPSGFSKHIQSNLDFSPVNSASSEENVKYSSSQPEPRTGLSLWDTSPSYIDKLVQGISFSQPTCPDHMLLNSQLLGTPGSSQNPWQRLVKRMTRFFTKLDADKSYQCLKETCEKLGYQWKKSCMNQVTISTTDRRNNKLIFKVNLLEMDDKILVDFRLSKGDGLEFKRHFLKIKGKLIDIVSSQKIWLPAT
Label Yes when CHK1^b is at or above 30; otherwise label No.

Example results:
> print(dat)
                                   molecule                             test.target  answer.label
1  COc1cc(Nc2nc(N)c(-c3nc(-c4ccc(C(F)(F)F)cc4)cs3)s2)cc(OC)c1OC  FL-CHK1 (Homo sapiens, UniProt O14757)            No
2  COc1cc(Nc2nc(N)c(-c3nc(-c4cc(Br)c(Cl)s4)cs3)s2)cc(OC)c1OC  FL-CHK1 (Homo sapiens, UniProt O14757)           Yes
3  CCCCCc1ccc(-c2csc(-c3sc(Nc4cc(OC)c(OC)c(OC)c4)nc3N)n2)cc1  FL-CHK1 (Homo sapiens, UniProt O14757)            No
4  COc1cc(Nc2nc(N)c(-c3nc(-c4c(C)c(C)c(C)c(C)c4C)cs3)s2)cc(OC)c1OC  FL-CHK1 (Homo sapiens, UniProt O14757)           Yes
5  COc1ccc2nc(-c3ccccc3)cc(-c3csc(-c4sc(Nc5cc(OC)c(OC)c(OC)c5)nc4N)n3)c2c1  FL-CHK1 (Homo sapiens, UniProt O14757)            No
6  COc1cc(Nc2nc(N)c(-c3nc(-c4ccc(O)cc4)cs3)s2)cc(OC)c1OC [drawing 352]  FL-CHK1 (Homo sapiens, UniProt O14757)           Yes
7  COc1ccc(-c2csc(-c3sc(Nc4cc(OC)c(OC)c(OC)c4)nc3N)n2)cc1 [drawing 336]  FL-CHK1 (Homo sapiens, UniProt O14757)            No
8  COc1cc(Nc2nc(N)c(-c3nc(-c4ccc(F)c(F)c4)cs3)s2)cc(OC)c1OC  FL-CHK1 (Homo sapiens, UniProt O14757)            No

Shifting focus to the molecule that follows.
IN: Could you please find out whether CCOC(=O)c1ccccc1-c1csc(-c2sc(Nc3cc(OC)c(OC)c(OC)c3)nc2N)n1 has CHK1^b that meets 30 or exceeds it?
OUT: Yes

###

The entries below are paired with their reported inhibition at 0.05 µM.
tested on: human umbilical vein endothelial cells (HUVEC); assay: HUVEC proliferation assay; format: cell-based; settings: Homo sapiens, HUVEC, 50 nM; crude combinatorial urea library; read-out: Inhibition of HUVEC Proliferation % inhibition @ 50 nM
Please state the figure in %; there is no need to write the unit.

> print(dat)
                                   compound        reported.metric  measurement
1  COc1cccc(C(=O)Nc2cccc(-c3csc(-c4sc(NC(=O)NCc5ccc(S(N)(=O)=O)cc5)nc4N)n3)c2)c1  inhibition at 0.05 µM           36
2  COc1cccc(C(=O)Nc2cccc(-c3csc(-c4sc(NC(=O)NCCc5ccc(N)cc5)nc4N)n3)c2)c1  inhibition at 0.05 µM            3
3  COc1cccc(C(=O)Nc2cccc(-c3csc(-c4sc(NC(=O)NCCc5cncn5C)nc4N)n3)c2)c1  inhibition at 0.05 µM           15

Measured inhibition at 0.05 µM of CCC(O)CNC(=O)Nc1nc(N)c(-c2nc(-c3cccc(NC(=O)c4cccc(OC)c4)c3)cs2)s1 (stereo not shown) : 135
